Where a SMILES comes first, the peptide text is derived from it. [ ]: non-standard residue; d: D form. The star is where a group is joined. Arg(NO2) = N=C(NCCC[C@H](N)C(=O)O)N[N+](=O)[O-]; Boc = CC(C)(C)OC(=O)*; NHOH = ON*
Please go through the items and note down their pIC50.
Please treat pIC50 as minus the base-10 logarithm of the molar concentration.

GET /values?item= CC(C)(C)OC(=O)N1CCC[C@H]1C(=O)N[C@@H](Cc1ccccc1)C(=O)N[C@@H](CCCNC(=N)N[N+](=O)[O-])C(=O)NO (Boc-Pro-Phe-[Arg(NO2)]-{NHOH}) &system= Aminopeptidase N (Sus scrofa, UniProt P15145) returns pIC50: 2.87

GET /values?item= CC(C)[C@H](NC(=O)[C@@H](N)Cc1ccccc1)C(=O)N[C@@H](CCCNC(N)=N[N+](=O)[O-])C(=O)NO (H-Phe-Val-[Arg(NO2)]-{NHOH}) &system= Aminopeptidase N (Sus scrofa, UniProt P15145) returns pIC50: 4.01

GET /values?item= CSCC[C@H](NC(=O)OC(C)(C)C)C(=O)N[C@@H](CCCNC(=N)N[N+](=O)[O-])C(=O)NO (Boc-Met-[Arg(NO2)]-{NHOH}) &system= Aminopeptidase N (Sus scrofa, UniProt P15145) returns pIC50: 3.88

###

Please go through the items and note down their pIC50.
Where a SMILES comes first, the peptide text is derived from it. [ ]: non-standard residue; d: D form. The star is where a group is joined. Arg(NO2) = N=C(NCCC[C@H](N)C(=O)O)N[N+](=O)[O-]; Boc = CC(C)(C)OC(=O)*; Bz = O=C(c1ccccc1)*; NHOH = ON*
Please treat pIC50 as minus the base-10 logarithm of the molar concentration.

GET /values?item= COc1ccc(C(=O)N[C@@H](C)C(=O)N[C@@H](CCCNC(N)=N[N+](=O)[O-])C(=O)NO)cc1 &system= 72 kDa type IV collagenase (Homo sapiens, UniProt P08253) returns pIC50: 2.05

GET /values?item= CC(C)(C)OC(=O)N1CCC[C@H]1C(=O)N[C@@H](Cc1ccc(O)cc1)C(=O)N[C@@H](CCCNC(=N)N[N+](=O)[O-])C(=O)NO (Boc-Pro-Tyr-[Arg(NO2)]-{NHOH}) &system= 72 kDa type IV collagenase (Homo sapiens, UniProt P08253) returns pIC50: 2.35

GET /values?item= CC(C)C[C@H](NC(=O)OC(C)(C)C)C(=O)N[C@@H](CCCNC(N)=N[N+](=O)[O-])C(=O)NO &system= 72 kDa type IV collagenase (Homo sapiens, UniProt P08253) returns pIC50: 2.25

GET /values?item= CC(C)[C@H](NC(=O)[C@H](Cc1ccccc1)NC(=O)OC(C)(C)C)C(=O)N[C@@H](CCCNC(=N)N[N+](=O)[O-])C(=O)NO (Boc-Phe-Val-[Arg(NO2)]-{NHOH}) &system= 72 kDa type IV collagenase (Homo sapiens, UniProt P08253) returns pIC50: 3.35

GET /values?item= CC(C)(C)OC(=O)N1CCC[C@H]1C(=O)N1CCC[C@H]1C(=O)N[C@@H](CCCNC(=N)N[N+](=O)[O-])C(=O)NO (Boc-Pro-Pro-[Arg(NO2)]-{NHOH}) &system= 72 kDa type IV collagenase (Homo sapiens, UniProt P08253) returns pIC50: 2.08

GET /values?item= CC(C)[C@H](NC(=O)c1ccccc1I)C(=O)N[C@@H](CCCNC(N)=N[N+](=O)[O-])C(=O)NO &system= 72 kDa type IV collagenase (Homo sapiens, UniProt P08253) returns pIC50: 2.75

GET /values?item= CC(C)C[C@H](NC(=O)c1ccc(Cl)cc1Cl)C(=O)N[C@@H](CCCNC(N)=N[N+](=O)[O-])C(=O)NO &system= 72 kDa type IV collagenase (Homo sapiens, UniProt P08253) returns pIC50: 2.81

GET /values?item= CC(C)[C@H](N)C(=O)N[C@@H](CCCNC(N)=N[N+](=O)[O-])C(=O)NO (H-Val-[Arg(NO2)]-{NHOH}) &system= 72 kDa type IV collagenase (Homo sapiens, UniProt P08253) returns pIC50: 3.37

GET /values?item= CC(C)[C@H](NC(=O)[C@@H](N)Cc1ccccc1)C(=O)N[C@@H](CCCNC(N)=N[N+](=O)[O-])C(=O)NO (H-Phe-Val-[Arg(NO2)]-{NHOH}) &system= 72 kDa type IV collagenase (Homo sapiens, UniProt P08253) returns pIC50: 2.50

GET /values?item= CC(C)C[C@H](N)C(=O)N[C@@H](CCCNC(=N)N[N+](=O)[O-])C(=O)NO &system= 72 kDa type IV collagenase (Homo sapiens, UniProt P08253) returns pIC50: 2.27

GET /values?item= NC(=N[N+](=O)[O-])NCCC[C@H](NC(=O)[C@H](Cc1ccccc1)NC(=O)[C@@H]1CCCN1)C(=O)NO (H-Pro-Phe-[Arg(NO2)]-{NHOH}) &system= 72 kDa type IV collagenase (Homo sapiens, UniProt P08253) returns pIC50: 2.09

GET /values?item= CC(C)C[C@H](N)C(=O)N[C@@H](C)C(=O)N[C@@H](CCCNC(N)=N[N+](=O)[O-])C(=O)NO (H-Leu-Ala-[Arg(NO2)]-{NHOH}) &system= 72 kDa type IV collagenase (Homo sapiens, UniProt P08253) returns pIC50: 2.77

GET /values?item= N=C(NCCC[C@H](NC(=O)[C@H](Cc1ccccc1)NC(=O)c1ccccc1)C(=O)NO)N[N+](=O)[O-] (Bz-Phe-[Arg(NO2)]-{NHOH}) &system= 72 kDa type IV collagenase (Homo sapiens, UniProt P08253) returns pIC50: 2.78

GET /values?item= CC(C)(C)OC(=O)N1CCC[C@H]1C(=O)N[C@@H](Cc1ccccc1)C(=O)N[C@@H](CCCNC(=N)N[N+](=O)[O-])C(=O)NO (Boc-Pro-Phe-[Arg(NO2)]-{NHOH}) &system= 72 kDa type IV collagenase (Homo sapiens, UniProt P08253) returns pIC50: 2.10

GET /values?item= C[C@H](NC(=O)c1ccc(Cl)cc1Cl)C(=O)N[C@@H](CCCNC(N)=N[N+](=O)[O-])C(=O)NO &system= 72 kDa type IV collagenase (Homo sapiens, UniProt P08253) returns pIC50: 2.76

###

Please go through the items and note down their IC50.
- ASSAYED TARGET: UniProt P15145
- Sequence (P15145 whole entry): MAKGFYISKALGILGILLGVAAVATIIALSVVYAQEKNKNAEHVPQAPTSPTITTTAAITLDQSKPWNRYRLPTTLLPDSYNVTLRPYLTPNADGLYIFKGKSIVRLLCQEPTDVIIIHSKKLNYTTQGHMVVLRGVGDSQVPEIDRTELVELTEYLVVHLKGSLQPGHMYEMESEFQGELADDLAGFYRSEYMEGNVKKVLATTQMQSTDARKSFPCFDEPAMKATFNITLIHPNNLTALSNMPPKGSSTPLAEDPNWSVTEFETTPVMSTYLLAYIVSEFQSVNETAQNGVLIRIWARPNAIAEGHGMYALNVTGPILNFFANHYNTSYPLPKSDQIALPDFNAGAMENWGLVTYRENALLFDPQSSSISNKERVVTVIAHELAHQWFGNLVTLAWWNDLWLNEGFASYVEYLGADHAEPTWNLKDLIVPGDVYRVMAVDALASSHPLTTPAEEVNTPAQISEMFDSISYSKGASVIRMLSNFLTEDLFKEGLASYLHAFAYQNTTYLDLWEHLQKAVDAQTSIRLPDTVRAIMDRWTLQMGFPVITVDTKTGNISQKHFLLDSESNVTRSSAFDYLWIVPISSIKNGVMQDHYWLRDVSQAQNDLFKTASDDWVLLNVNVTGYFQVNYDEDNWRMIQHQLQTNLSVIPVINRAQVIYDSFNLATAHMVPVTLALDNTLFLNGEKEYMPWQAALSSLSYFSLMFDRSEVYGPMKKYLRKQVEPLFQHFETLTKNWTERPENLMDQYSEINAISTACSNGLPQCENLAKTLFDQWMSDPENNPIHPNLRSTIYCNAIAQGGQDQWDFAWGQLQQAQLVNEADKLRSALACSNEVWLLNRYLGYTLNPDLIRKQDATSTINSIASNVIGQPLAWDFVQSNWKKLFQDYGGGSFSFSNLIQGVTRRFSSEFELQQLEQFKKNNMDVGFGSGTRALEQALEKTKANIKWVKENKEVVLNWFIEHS
Where a SMILES comes first, the peptide text is derived from it. [ ]: non-standard residue; d: D form. The star is where a group is joined. Arg(NO2) = N=C(NCCC[C@H](N)C(=O)O)N[N+](=O)[O-]; Boc = CC(C)(C)OC(=O)*; NHOH = ON*

Sample N=C(NCCC[C@H](NC(=O)[C@H](Cc1ccccc1)NC(=O)c1ccc(Cl)cc1Cl)C(=O)NO)N[N+](=O)[O-] ; IC50 observed: 4.3 µM

Sample CC(C)C[C@H](NC(=O)OC(C)(C)C)C(=O)N[C@@H](CCCNC(N)=N[N+](=O)[O-])C(=O)NO ; IC50 observed: 334 µM

Sample CC(C)(C)OC(=O)N1CCC[C@H]1C(=O)N1CCC[C@H]1C(=O)N[C@@H](CCCNC(=N)N[N+](=O)[O-])C(=O)NO (Boc-Pro-Pro-[Arg(NO2)]-{NHOH}) ; IC50 observed: 42.1 µM

Sample CC(C)[C@H](NC(=O)c1ccccc1I)C(=O)N[C@@H](CCCNC(N)=N[N+](=O)[O-])C(=O)NO ; IC50 observed: 6.7 µM

Sample CC(C)C[C@H](NC(=O)[C@H](Cc1ccccc1)NC(=O)OC(C)(C)C)C(=O)N[C@@H](CCCNC(=N)N[N+](=O)[O-])C(=O)NO (Boc-Phe-Leu-[Arg(NO2)]-{NHOH}) ; IC50 observed: 8.4 µM

Sample CC(C)[C@H](NC(=O)OC(C)(C)C)C(=O)N[C@@H](CCCNC(N)=N[N+](=O)[O-])C(=O)NO (Boc-Val-[Arg(NO2)]-{NHOH}) ; IC50 observed: 201 µM
